target-system: UniProt:P21554
Sequence (P21554 whole entry): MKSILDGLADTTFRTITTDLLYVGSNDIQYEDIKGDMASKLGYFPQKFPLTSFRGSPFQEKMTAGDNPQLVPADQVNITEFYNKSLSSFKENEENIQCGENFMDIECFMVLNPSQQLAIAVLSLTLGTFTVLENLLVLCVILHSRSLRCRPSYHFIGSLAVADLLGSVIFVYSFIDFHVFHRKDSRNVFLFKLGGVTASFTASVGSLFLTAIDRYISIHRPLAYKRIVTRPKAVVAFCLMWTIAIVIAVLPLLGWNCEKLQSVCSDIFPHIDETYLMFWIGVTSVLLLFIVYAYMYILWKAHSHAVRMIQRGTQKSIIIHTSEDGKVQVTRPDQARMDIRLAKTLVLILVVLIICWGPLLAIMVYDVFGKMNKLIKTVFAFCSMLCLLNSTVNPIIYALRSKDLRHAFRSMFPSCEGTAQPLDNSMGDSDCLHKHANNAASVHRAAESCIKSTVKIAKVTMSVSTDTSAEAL
Assay type: functional, cell-based
Reported AC50 values follow for various compounds

For orientation, consider the following solved cases.
O=C(CCCN1CCC(O)(c2ccc(Br)cc2)CC1)c1ccc(F)cc1 [BROMPERIDOL]; > 30 µM
COc1cc2[nH]c(C)c(CCN3CCN(c4ccccc4)CC3)c2cc1OC [OXYPERTINE]; > 30 µM
CNC[C@H](O)c1ccc(O)c(O)c1 [EPINEPHRINE]; > 30 µM
C[C@]12C=CC(=O)C=C1CC[C@@H]1[C@@H]2CC[C@]2(C)OC(=O)CC[C@@H]12 [TESTOLACTONE]; > 30 µM
Cc1cc(=O)n(-c2ccccc2)n1C [ANTIPYRINE]; > 30 µM

[ask] Consider the compound CCC1(c2ccc(N)cc2)CCC(=O)NC1=O (stereo not drawn) [AMINOGLUTETHIMIDE] and give its measured AC50.
[reply] > 30 µM

[ask] Consider the compound C=CCN1CCc2nc(N)sc2CC1 [TALIPEXOLE] and give its measured AC50.
[reply] > 30 µM

[ask] Consider the compound CC[C@@H](CO)NC(=O)[C@@H]1C=C2c3cccc4c3c(cn4C)C[C@H]2N(C)C1 [METHYSERGIDE] and give its measured AC50.
[reply] > 30 µM

[ask] Consider the compound CCOC(=O)[C@@H](N)Cc1ccc(-c2cc(O[C@H](c3ccc(Cl)cc3-n3ccc(C)n3)C(F)(F)F)nc(N)n2)cc1 [TELOTRISTAT ETHYL] and give its measured AC50.
[reply] > 30 µM

[ask] Consider the compound Oc1ccc(CCNCCCCCCNCCc2ccccc2)cc1O [DOPEXAMINE] and give its measured AC50.
[reply] > 30 µM

----------
Quick record of AC50 values for Gamma-aminobutyric acid receptor subunit alpha-1 (Rattus norvegicus).

CN(C)CCCN1c2ccccc2CCc2ccccc21; > 10 µM
CNCCc1ccc(OC(=O)C(C)C)c(OC(=O)C(C)C)c1; > 30 µM
CO[C@H]1C[C@H](O[C@H]2CC[C@@]3(C)[C@H](CC[C@@H]4[C@@H]3CC[C@]3(C)[C@@H](C5=CC(=O)OC5)[C@@H](OC(C)=O)C[C@]43O)C2)O[C@@H](C)[C@@H]1O; > 30 µM
O=C1OC(OC(=O)c2cccnc2Nc2cccc(C(F)(F)F)c2)c2ccccc21 (stereo unspecified) [TALNIFLUMATE]; > 30 µM
CN1Cc2c(N)cccc2C(c2ccccc2)C1 (stereo unspecified); > 30 µM

[ask] Consider the molecule O=C(NCCO[N+](=O)[O-])c1cccnc1 and give its measured AC50.
[reply] > 30 µM

[ask] Consider the molecule O=C1c2cccc3c2[C@H](CCC3)CN1[C@@H]1CN2CCC1CC2 and give its measured AC50.
[reply] > 30 µM

[ask] Consider the molecule CCCc1nc2c(C)cc(-c3nc4ccccc4n3C)cc2n1Cc1ccc(-c2ccccc2C(=O)O)cc1 and give its measured AC50.
[reply] > 30 µM

[ask] Consider the molecule C[C@]12CCC(=O)C[C@@H]1CC[C@@H]1[C@@H]2CC[C@]2(C)[C@@H](O)CC[C@@H]12 and give its measured AC50.
[reply] > 30 µM

[ask] Consider the molecule CC(CN1c2ccccc2Sc2ccccc21)N(C)C (stereo unspecified) and give its measured AC50.
[reply] > 10 µM

[ask] Consider the molecule CC(C)[C@H](N)C(=O)OCCOCn1cnc2c(=O)[nH]c(N)nc21 and give its measured AC50.
[reply] > 10 µM

[ask] Consider the molecule CC(c1cc2ccccc2s1)N(O)C(N)=O (stereo unspecified) and give its measured AC50.
[reply] > 10 µM

----------
target-system: Growth hormone secretagogue receptor type 1 (Homo sapiens); further: assay procedure not described here
Sequence (Q92847 whole entry): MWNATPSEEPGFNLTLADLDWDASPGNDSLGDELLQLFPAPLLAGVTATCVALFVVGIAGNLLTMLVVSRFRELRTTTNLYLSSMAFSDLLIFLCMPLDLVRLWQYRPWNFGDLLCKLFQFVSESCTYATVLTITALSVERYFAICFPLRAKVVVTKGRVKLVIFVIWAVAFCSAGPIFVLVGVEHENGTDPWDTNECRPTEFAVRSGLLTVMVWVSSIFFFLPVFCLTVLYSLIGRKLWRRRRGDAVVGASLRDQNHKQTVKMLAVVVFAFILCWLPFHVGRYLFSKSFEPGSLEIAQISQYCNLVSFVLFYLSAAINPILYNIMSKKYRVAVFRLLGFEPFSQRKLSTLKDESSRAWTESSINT
Reported AC50 values follow for various molecules

For orientation, consider the following solved cases.
CCCNC(=O)NS(=O)(=O)c1ccc(Cl)cc1 [CHLORPROPAMIDE]; > 30 µM
CCC1(CCC(C)C)C(=O)NC(=O)NC1=O; > 10 µM

[ask] Consider the molecule CN[C@@H](C)[C@@H](O)c1ccccc1 and give its measured AC50.
[reply] > 30 µM

[ask] Consider the molecule CC1=C(/C=C/C(C)=C/C=C/C(C)=C/CO)C(C)(C)CCC1 and give its measured AC50.
[reply] > 10 µM

[ask] Consider the molecule CCCCOc1ccc(C(=O)CCN2CCCCC2)cc1 and give its measured AC50.
[reply] > 30 µM

[ask] Consider the molecule C=CCN1CCc2nc(N)sc2CC1 [TALIPEXOLE] and give its measured AC50.
[reply] > 30 µM

[ask] Consider the molecule O=C(O)c1cccnc1Nc1cccc(C(F)(F)F)c1 and give its measured AC50.
[reply] > 10 µM

[ask] Consider the molecule CO/N=C(\C(=O)N[C@@H]1C(=O)N2C(C(=O)O)=C(CSc3nc(=O)c(=O)[nH]n3C)CS[C@H]12)c1csc(N)n1 and give its measured AC50.
[reply] > 30 µM

[ask] Consider the molecule CC(C)Cc1ccc([C@H](C)C(=O)O)cc1 and give its measured AC50.
[reply] > 30 µM

[ask] Consider the molecule CCCC(C)(COC(N)=O)COC(N)=O [MEPROBAMATE] and give its measured AC50.
[reply] > 10 µM

----------
Reported AC50 values follow for various molecules
target-system: Alpha-2A adrenergic receptor (Homo sapiens, UniProt P08913); further: assay procedure not described here
Sequence (P08913 whole entry): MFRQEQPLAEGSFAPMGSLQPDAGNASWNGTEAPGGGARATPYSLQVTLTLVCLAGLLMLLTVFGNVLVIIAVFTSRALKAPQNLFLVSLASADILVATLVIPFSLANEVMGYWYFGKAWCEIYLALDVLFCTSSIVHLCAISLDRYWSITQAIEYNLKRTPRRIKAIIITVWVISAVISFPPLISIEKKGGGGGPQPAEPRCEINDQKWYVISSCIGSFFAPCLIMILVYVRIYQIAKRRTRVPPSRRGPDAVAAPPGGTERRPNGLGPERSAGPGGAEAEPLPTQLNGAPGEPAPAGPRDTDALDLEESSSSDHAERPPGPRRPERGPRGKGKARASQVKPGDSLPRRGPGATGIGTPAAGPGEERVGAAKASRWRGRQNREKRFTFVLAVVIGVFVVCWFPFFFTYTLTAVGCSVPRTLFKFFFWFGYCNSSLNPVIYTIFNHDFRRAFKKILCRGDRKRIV
Type: functional, cell-based

CN1Cc2c(N)cccc2C(c2ccccc2)C1 (centres undefined) [NOMIFENSINE]; > 30 µM

[ask] Hello, I am looking for reported AC50 with Alpha-2A adrenergic receptor (Homo sapiens, UniProt P08913) for CCC[C@@H]1C[C@@H](C(=O)N[C@@H]([C@H]2O[C@H](SC)[C@H](O)[C@@H](O)[C@H]2O)[C@@H](C)O)N(C)C1 [LINCOMYCIN] . Could you help?
[reply] > 30 µM

----------
Quick record of AC50 values for Neuronal acetylcholine receptor subunit alpha-4 (Homo sapiens, UniProt P43681).

For orientation, consider the following solved cases.
O=C1Nc2ccc(Cl)cc2C(c2ccccc2Cl)=NC1O (centres undefined) [LORAZEPAM]; > 10 µM
CCc1nc(N)nc(N)c1-c1ccc(Cl)cc1 [PYRIMETHAMINE]; > 10 µM
Cc1cccc(C)c1NC(=O)CC12CCCN1CCC2 [PILSICAINIDE]; > 30 µM
C=CCN1CCc2nc(N)sc2CC1 [TALIPEXOLE]; > 30 µM
CO/N=C(\C(=O)N[C@@H]1C(=O)N2C(C(=O)O)=CCS[C@H]12)c1csc(N)n1 [CEFTIZOXIME]; > 30 µM

[ask] Hello, I am looking for reported AC50 with Neuronal acetylcholine receptor subunit alpha-4 (Homo sapiens, UniProt P43681) for CC1=C(/C=C/C(C)=C/C=C/C(C)=C/CO)C(C)(C)CCC1 [RETINOL] . Could you help?
[reply] > 10 µM

[ask] Hello, I am looking for reported AC50 with Neuronal acetylcholine receptor subunit alpha-4 (Homo sapiens, UniProt P43681) for C[C@@H]1C[C@H]2[C@@H]3C[C@H](F)C4=CC(=O)C=C[C@]4(C)[C@@]3(F)[C@@H](O)C[C@]2(C)[C@@]1(OC(=O)c1ccco1)C(=O)SCF [FLUTICASONE FUROATE] . Could you help?
[reply] > 10 µM

[ask] Hello, I am looking for reported AC50 with Neuronal acetylcholine receptor subunit alpha-4 (Homo sapiens, UniProt P43681) for NNC(=O)c1ccncc1 [ISONIAZID] . Could you help?
[reply] > 30 µM

[ask] Hello, I am looking for reported AC50 with Neuronal acetylcholine receptor subunit alpha-4 (Homo sapiens, UniProt P43681) for CCC1(c2ccc(N)cc2)CCC(=O)NC1=O (centres undefined) [AMINOGLUTETHIMIDE] . Could you help?
[reply] > 30 µM

----------
Quick record of AC50 values for 5-hydroxytryptamine receptor 2C (Homo sapiens, UniProt P28335).

For orientation, consider the following solved cases.
C/C=C(/C(=C/C)c1ccc(O)cc1)c1ccc(O)cc1; > 30 µM
CCOc1cc([C@@H](CS(C)(=O)=O)N2C(=O)c3cccc(NC(C)=O)c3C2=O)ccc1OC; > 30 µM

[ask] Consider the compound NS(=O)(=O)c1cc2c(cc1Cl)N=C(CSCc1ccccc1)NS2(=O)=O [BENZTHIAZIDE] and give its measured AC50.
[reply] > 30 µM

[ask] Consider the compound O=C1c2cccc3c2[C@H](CCC3)CN1[C@@H]1CN2CCC1CC2 and give its measured AC50.
[reply] > 30 µM

[ask] Consider the compound COC(=O)[C@H]1[C@H]2C[C@@H]3c4[nH]c5cc(OC)ccc5c4CCN3C[C@H]2C[C@@H](OC(=O)c2cc(OC)c(OC)c(OC)c2)[C@@H]1OC and give its measured AC50.
[reply] > 30 µM

[ask] Consider the compound CCCN1CCCC[C@H]1C(=O)Nc1c(C)cccc1C and give its measured AC50.
[reply] > 30 µM

[ask] Consider the compound C[C@]12CCC(=O)C[C@@H]1CC[C@@H]1[C@@H]2CC[C@]2(C)[C@@H](O)CC[C@@H]12 and give its measured AC50.
[reply] > 30 µM

[ask] Consider the compound CC=CC1=C(C(=O)O)N2C(=O)[C@@H](NC(=O)[C@H](N)c3ccc(O)cc3)[C@H]2SC1 and give its measured AC50.
[reply] > 30 µM

[ask] Consider the compound CCOC(=O)c1ccc(N)cc1 and give its measured AC50.
[reply] > 30 µM

[ask] Consider the compound CCC[C@@H]1C[C@@H](C(=O)N[C@@H]([C@H]2O[C@H](SC)[C@H](O)[C@@H](O)[C@H]2O)[C@@H](C)O)N(C)C1 and give its measured AC50.
[reply] > 30 µM

[ask] Consider the compound CC(C)[C@@H](C)/C=C/[C@@H](C)[C@H]1CC[C@H]2/C(=C/C=C3\C[C@@H](O)CC[C@@H]3C)CCC[C@]12C [DIHYDROTACHYSTEROL] and give its measured AC50.
[reply] > 30 µM

[ask] Consider the compound C[N+]1(C)CCC(=C(c2ccccc2)c2ccccc2)CC1 and give its measured AC50.
[reply] > 30 µM

[ask] Consider the compound CCOC(=O)c1ccc(C#Cc2ccc3c(c2)C(C)(C)CCS3)nc1 and give its measured AC50.
[reply] > 30 µM

[ask] Consider the compound CC(c1cc2ccccc2s1)N(O)C(N)=O (centres undefined) and give its measured AC50.
[reply] > 30 µM

[ask] Consider the compound CCCN1CC(NS(=O)(=O)N(CC)CC)CC2Cc3c(O)cccc3CC21 (centres undefined) [QUINAGOLIDE] and give its measured AC50.
[reply] > 30 µM

[ask] Consider the compound CCOC(=O)C1=C(C)NC(C)=C(C(=O)OCC)C1c1ccccc1/C=C/C(=O)OC(C)(C)C and give its measured AC50.
[reply] > 30 µM

[ask] Consider the compound C[N+]12CCC(CC1)C(OC(=O)C(O)(c1ccccc1)c1ccccc1)C2 (centres undefined) and give its measured AC50.
[reply] > 30 µM

[ask] Consider the compound Cc1nnc(SCC2=C(C(=O)O)N3C(=O)[C@@H](NC(=O)Cn4cnnn4)[C@H]3SC2)s1 and give its measured AC50.
[reply] > 300 µM

[ask] Consider the compound O=C1OC(OC(=O)c2cccnc2Nc2cccc(C(F)(F)F)c2)c2ccccc21 (centres undefined) [TALNIFLUMATE] and give its measured AC50.
[reply] > 30 µM

[ask] Consider the compound Cn1c(=O)c2c(ncn2CCOC(=O)C(C)(C)Oc2ccc(Cl)cc2)n(C)c1=O [THEOFIBRATE] and give its measured AC50.
[reply] > 30 µM

[ask] Consider the compound O=C(CCCN1CCC(O)(c2ccc(Br)cc2)CC1)c1ccc(F)cc1 and give its measured AC50.
[reply] > 30 µM

[ask] Consider the compound Cc1ccc(C)c(OCCCC(C)(C)C(=O)O)c1 and give its measured AC50.
[reply] > 30 µM

Source listed as ChEMBL document CHEMBL5291721.
